system-tested: glucocorticoid receptor (GR) (Homo sapiens)
measurement-description: Ligand binding assay (GR BIND), 3H-dexamethasone displacement in MDA-MB-453 cell lysate
experimental-setup: GR BIND Ki, Table 1
assay-metric: Ki (nM)

Some entries whose results are on file:
>  <compound>
C[C@]12Cc3cnn(-c4ccc(F)cc4)c3C=C1CC[C@@H]2C(=O)N(CCC#N)CCC#N [Compound 13]

>  <Ki (nM)>
35.3

$$$$
>  <compound>
C[C@]12Cc3cnn(-c4ccc(F)cc4)c3C=C1CC[C@@H]2C(=O)N(CCO)Cc1ccccc1 [Compound 36]

>  <Ki (nM)>
11.7

$$$$
>  <compound>
CCCCCN(CCO)C(=O)[C@H]1CCC2=Cc3c(cnn3-c3ccc(F)cc3)C[C@@]21C [Compound 38]

>  <Ki (nM)>
14.6

$$$$
>  <compound>
C[C@]12Cc3cnn(-c4ccc(F)cc4)c3C=C1CC[C@@H]2C(=O)N(CCC#N)C1CC1 [Compound 14]

>  <Ki (nM)>
10.8

$$$$

P = CCCN(CC(O)C(F)(F)F)C(=O)[C@H]1CCC2=Cc3c(cnn3-c3ccccc3)C[C@@]21C (stereo partly shown) [Compound 78]
Q = C[C@]12Cc3cnn(-c4ccc(F)cc4)c3C=C1CC[C@@H]2C(=O)N(CCc1ccccc1F)CC(O)CC(F)(F)F (stereo partly shown) [Compound 87]
Challenge: Which value of Ki is smaller, the one for P or the one for Q ? Indicate your choice by writing its label.
Response given: Q

---

system-tested: human GR (Homo sapiens)
Construct: U937 cells contain an endogenous glucocorticoid receptor (GR); endogenous in cells; host or cells: U937 cells stably transfected with the TNF-alpha promoter/beta-lactamase reporter
Sequence (P04150 1-777): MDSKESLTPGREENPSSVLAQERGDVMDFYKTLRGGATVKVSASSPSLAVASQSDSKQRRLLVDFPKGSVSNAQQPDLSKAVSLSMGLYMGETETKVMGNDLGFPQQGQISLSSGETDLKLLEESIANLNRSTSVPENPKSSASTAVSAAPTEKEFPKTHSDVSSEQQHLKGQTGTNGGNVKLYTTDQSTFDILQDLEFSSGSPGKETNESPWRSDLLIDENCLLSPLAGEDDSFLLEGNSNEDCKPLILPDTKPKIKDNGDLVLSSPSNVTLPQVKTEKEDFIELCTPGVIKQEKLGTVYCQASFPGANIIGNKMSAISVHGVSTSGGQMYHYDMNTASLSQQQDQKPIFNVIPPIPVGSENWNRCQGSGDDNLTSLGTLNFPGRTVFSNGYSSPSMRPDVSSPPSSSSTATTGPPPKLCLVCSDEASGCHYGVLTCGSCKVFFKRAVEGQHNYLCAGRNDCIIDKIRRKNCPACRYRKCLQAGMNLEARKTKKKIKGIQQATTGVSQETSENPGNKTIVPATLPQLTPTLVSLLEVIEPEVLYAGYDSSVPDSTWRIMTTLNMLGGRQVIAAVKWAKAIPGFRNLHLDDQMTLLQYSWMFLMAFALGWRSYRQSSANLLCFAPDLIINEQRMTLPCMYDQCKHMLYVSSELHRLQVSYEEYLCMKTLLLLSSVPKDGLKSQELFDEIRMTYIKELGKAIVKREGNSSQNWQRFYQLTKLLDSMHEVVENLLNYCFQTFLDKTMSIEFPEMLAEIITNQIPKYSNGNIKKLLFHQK
measurement-description: Transrepression Assay (GITAR), TNFα-β-lactamase reporter gene in U937 cells
Type: cell-based
experimental-setup: inflection point; U937 cells; Table 1; read-out: Transrepression U937 Cells GITAR IP
assay-metric: EC50 (µM)

I = CCCN(C[C@H](C)O)C(=O)[C@H]1CCC2=Cc3c(cnn3-c3ccc(F)cc3)C[C@@]21C [Compound 65]
II = C[C@]12Cc3cnn(-c4ccc(F)cc4)c3C=C1CC[C@@H]2C(=O)N1CCCC1CCc1ccccc1 (stereo partly drawn) [Compound 19]
Challenge: Thinking about recorded EC50 values, which is higher, I or II ? Indicate your choice by writing its label.
Response given: II
(II: 4.26 µM, I: 0.424 µM)
